binders and their reported EC50
- System: full-length beta-Catenin (Uniprot ID P35222) (Homo sapiens (Human)) (UniProt P35222)
- Sequence (P35222 whole entry): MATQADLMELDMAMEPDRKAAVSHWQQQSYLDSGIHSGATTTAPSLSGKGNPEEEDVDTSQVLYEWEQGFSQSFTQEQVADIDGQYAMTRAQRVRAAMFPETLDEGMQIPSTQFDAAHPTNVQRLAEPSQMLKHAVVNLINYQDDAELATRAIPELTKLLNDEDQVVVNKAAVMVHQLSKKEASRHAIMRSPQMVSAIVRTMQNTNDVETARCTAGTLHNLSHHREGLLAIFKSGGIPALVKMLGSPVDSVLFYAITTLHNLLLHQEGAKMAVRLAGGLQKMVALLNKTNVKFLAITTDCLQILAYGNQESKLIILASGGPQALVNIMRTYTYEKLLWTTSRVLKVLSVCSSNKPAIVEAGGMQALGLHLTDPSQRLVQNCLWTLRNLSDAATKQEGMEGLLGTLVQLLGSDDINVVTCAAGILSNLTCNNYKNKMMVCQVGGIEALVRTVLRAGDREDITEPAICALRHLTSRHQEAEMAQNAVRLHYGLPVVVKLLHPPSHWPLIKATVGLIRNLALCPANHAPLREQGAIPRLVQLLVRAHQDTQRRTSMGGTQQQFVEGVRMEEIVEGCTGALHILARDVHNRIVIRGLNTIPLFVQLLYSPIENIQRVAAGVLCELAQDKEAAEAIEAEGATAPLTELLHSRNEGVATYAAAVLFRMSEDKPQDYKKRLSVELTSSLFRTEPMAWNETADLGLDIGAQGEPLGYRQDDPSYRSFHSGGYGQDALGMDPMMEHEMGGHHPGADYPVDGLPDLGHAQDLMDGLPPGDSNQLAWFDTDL
- Assay: fluorescence polarization competition: full-length beta-catenin + 5FAM-TCF4(10-53) probe, peptide titrated
Starred links: 1 amine or outer side, 2 acyl side, 3 side chain; linkers in the order of their positions; H or OH if unused. Positions of bridges follow the written chain, without caps; N, C: chain ends. Non-standard residues stand in square brackets, D forms with d. Primed or numbered codes have the meaning given here. B5(4) = 2,2-bis(4-pentenyl)glycine = 2-amino-2-(pent-4-en-1-yl)hept-6-enoic acid (stitching residue), C=CCCCC(CCCC=C)(N[*:1])C(=O)[*:2]; Ala(1H-tetrazol-5-yl) = N[C@@H](Cc1nnn[nH]1)C(=O)O; Phe(4-NH2) = Nc1ccc(C[C@H](N)C(=O)O)cc1; Ala(2-furyl) = N[C@@H](Cc1ccco1)C(=O)O; Phe(3-Me) = Cc1cccc(C[C@H](N)C(=O)O)c1; Phe(4-Me) = Cc1ccc(C[C@H](N)C(=O)O)cc1; Phe(2-Me) = Cc1ccccc1C[C@H](N)C(=O)O; Bta = N[C@@H](Cc1csc2ccccc12)C(=O)O; αAllylPro = C=CC[C@@]1(C(=O)O)CCCN1; hPhe = N[C@@H](CCc1ccccc1)C(=O)O; 2Thi = N[C@@H](Cc1cccs1)C(=O)O; 3Thi = N[C@@H](Cc1ccsc1)C(=O)O; S8 = C=CCCCCCC[C@](C)(N)C(=O)O
Property name: EC50 (nM)

1. Ac-[αAllylPro]DA[B5(4)]DEAA[2Thi]N[S8]F[Bta]Q-NH2 (staple 1-4, 4-11) [I-447] :: 74
2. Ac-[αAllylPro]DA[B5(4)][Ala(1H-tetrazol-5-yl)]DAAFN[S8]F[Bta]Q-NH2 (staple 1-4, 4-11) [I-445] :: 4960
3. Ac-[αAllylPro]DA[B5(4)]DEAA[3Thi]N[S8]F[Bta]Q-NH2 (staple 1-4, 4-11) [I-448] :: 92
4. Ac-[αAllylPro]DA[B5(4)]DEAA[Phe(4-NH2)]N[S8]F[Bta]Q-NH2 (staple 1-4, 4-11) [I-461] :: 125
5. Ac-[αAllylPro]DA[B5(4)]DEAAFN[S8][hPhe][Bta]Q-NH2 (staple 1-4, 4-11; also: staple isomer composition, later-eluting HPLC peak) [I-443] :: 2130
6. Ac-[αAllylPro]DA[B5(4)]DEAA[2Thi]N[S8]F[Bta]Q-NH2 (staple 1-4, 4-11; also: staple isomer composition, earlier-eluting HPLC peak) [I-446] :: 130
7. Ac-[αAllylPro]DA[B5(4)]DEAAFN[S8][hPhe][Bta]Q-NH2 (staple 1-4, 4-11; also: staple isomer composition, earlier-eluting HPLC peak) [I-442] :: 4480
8. Ac-[αAllylPro]DA[B5(4)]D[Ala(1H-tetrazol-5-yl)]AAFN[S8]F[Bta]Q-NH2 (staple 1-4, 4-11) [I-444] :: 80
9. Ac-[αAllylPro]DA[B5(4)]DEAA[Phe(2-Me)]N[S8]F[Bta]Q-NH2 (staple 1-4, 4-11) [I-457] :: 1440
10. Ac-[αAllylPro]DA[B5(4)]DEAA[Phe(2-Me)]N[S8]F[Bta]Q-NH2 (staple 1-4, 4-11) [I-456] :: 2170
11. Ac-[αAllylPro]DA[B5(4)]DEAA[3Thi]N[S8]F[Bta]Q-NH2 (staple 1-4, 4-11) [I-449] :: 53
12. Ac-[αAllylPro]DA[B5(4)]DEAA[Phe(3-Me)]N[S8]F[Bta]Q-NH2 (staple 1-4, 4-11) [I-458] :: 102
13. Ac-[αAllylPro]DA[B5(4)]DEAA[Phe(4-Me)]N[S8]F[Bta]Q-NH2 (staple 1-4, 4-11) [I-459] :: 183
14. Ac-[αAllylPro]DA[B5(4)]DEAA[Ala(2-furyl)]N[S8]F[Bta]Q-NH2 (staple 1-4, 4-11) [I-460] :: 196
